Assay: Pig study: concentration of melagatran in plasma and dialysis outlet during dialysis
Type: in vivo
Conditions: Swedish Land Race, pig, plasma, iv, 0.15 μmol/kg; start of dialysis, 2 minutes after i.v. bolus dose; both pigs; read-out: concentration of melagatran in plasma (efferent blood)
Method: Two Swedish Land Race pigs weighing 59 and 57 kg respectively were used. […] Before the start of dialysis, the LunDia Pro 600 dialysis filter (Gambro, Lund, Sweden) was primed on both sides for 15 minutes with Biosol A201.5 glucose (Pharmalink, Solna, Sweden) dialysis concentrate diluted 1:35 using a Gambro AK-100 (Grambro. Lund, Sweden) haemodialysis equipment (see FIG. 5). […] Pressure was measured (transducer Peter von Berg Medizintechnik) on both sides of the dialysis membrane. […]
RECORDED_METRIC: concentration at 2 min

I would be grateful if you could share the reported concentration at 2 min for N=C(N)c1ccc(CNC(=O)[C@@H]2CCN2C(=O)[C@H](NCC(=O)O)C2CCCCC2)cc1 [melagatran, HOOC—CH2—(R)Cgl-Aze-Pab-H] .
900 to 1000 nM

* * *

experiment: Pig study: clearance of iohexol to monitor filter clearance; type: in vivo; conditions: Swedish Land Race, plasma and dialysing solution, intravenous, 6000 mg, dialysis filter clearance, measured every half-hour, two experiments
RECORDED_METRIC: clearance

I would be grateful if you could share the reported clearance for CC(=O)N(CC(O)CO)c1c(I)c(C(=O)NCC(O)CO)c(I)c(C(=O)NCC(O)CO)c1I (stereo not shown) [iohexol] .
~150 mL/min
